compounds and their reported relative viability
system: ABC-1; test: relative viability (nuclei count vs DMSO), 5 days (fraction); higher = more cells survive; conditions: first compound 0.005 µM

Param request: relative viability | system ABC-1 | item CC1(C)CCC(c2ccc(Cl)cc2)=C(CN2CCN(c3ccc(C(=O)NS(=O)(=O)c4ccc(N[C@H](CCN5CCOCC5)CSc5ccccc5)c(S(=O)(=O)C(F)(F)F)c4)cc3)CC2)C1 [Navitoclax] + NC(=O)Nc1cc(-c2cccc(F)c2)sc1C(=O)N[C@H]1CCCNC1 [AZD7762] (partner 0.2 µM) 0.816

***
Check ABC-1 data and give relative viability for CC1(C)CCC(c2ccc(Cl)cc2)=C(CN2CCN(c3ccc(C(=O)NS(=O)(=O)c4ccc(N[C@H](CCN5CCOCC5)CSc5ccccc5)c(S(=O)(=O)C(F)(F)F)c4)cc3)CC2)C1 [Navitoclax] + O=C(c1cc(Cc2n[nH]c(=O)c3ccccc23)ccc1F)N1CCN(C(=O)C2CC2)CC1 [Olaparib] (partner 8 µM) . 0.909

Report relative viability under test system ABC-1 for CC1(C)CCC(c2ccc(Cl)cc2)=C(CN2CCN(c3ccc(C(=O)NS(=O)(=O)c4ccc(N[C@H](CCN5CCOCC5)CSc5ccccc5)c(S(=O)(=O)C(F)(F)F)c4)cc3)CC2)C1 [Navitoclax] + COc1cc2c(Oc3ccc(NC(=O)C4(C(=O)Nc5ccc(F)cc5)CC4)cc3F)ccnc2cc1OCCCN1CCOCC1 [Foretinib] (partner 0.25 µM) . 1.32

Provide the reported relative viability (system: ABC-1) for CC1(C)CCC(c2ccc(Cl)cc2)=C(CN2CCN(c3ccc(C(=O)NS(=O)(=O)c4ccc(N[C@H](CCN5CCOCC5)CSc5ccccc5)c(S(=O)(=O)C(F)(F)F)c4)cc3)CC2)C1 [Navitoclax] + CS(=O)(=O)N1CCN(Cc2cc3nc(-c4cccc5[nH]ncc45)nc(N4CCOCC4)c3s2)CC1 [Pictilisib] (partner 1 µM) 0.795
